MEASUREMENT_TARGET: β-Glucuronidase (E.C. 3.2.1.31 from bovine liver) (Bos taurus)
Construct: β-Glucuronidase (E.C. 3.2.1.31 from bovine liver, G-0251); purchased Sigma Chemical Co. (St. Louis, MO, USA) G-0251; host or cells: bovine liver (tissue-derived preparation)
Sequence (A3KMY8 1-652): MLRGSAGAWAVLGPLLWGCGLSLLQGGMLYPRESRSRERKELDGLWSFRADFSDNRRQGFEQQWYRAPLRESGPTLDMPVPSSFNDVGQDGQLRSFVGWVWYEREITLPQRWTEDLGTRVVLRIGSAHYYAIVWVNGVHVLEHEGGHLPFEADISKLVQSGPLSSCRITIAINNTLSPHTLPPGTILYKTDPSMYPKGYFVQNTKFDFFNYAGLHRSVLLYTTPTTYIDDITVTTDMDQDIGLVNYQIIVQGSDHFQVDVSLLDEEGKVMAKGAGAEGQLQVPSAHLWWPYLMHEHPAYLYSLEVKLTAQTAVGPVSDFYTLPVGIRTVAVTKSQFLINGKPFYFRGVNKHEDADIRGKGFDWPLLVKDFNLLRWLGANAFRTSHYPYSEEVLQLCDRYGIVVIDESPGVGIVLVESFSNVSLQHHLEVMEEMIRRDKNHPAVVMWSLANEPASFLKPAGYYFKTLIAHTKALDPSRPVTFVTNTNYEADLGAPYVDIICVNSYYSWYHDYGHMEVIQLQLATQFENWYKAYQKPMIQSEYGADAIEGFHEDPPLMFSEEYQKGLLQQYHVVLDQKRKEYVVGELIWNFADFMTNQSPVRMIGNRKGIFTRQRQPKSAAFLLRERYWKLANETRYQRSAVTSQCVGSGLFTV
METHOD_DESCRIPTION: In vitro β-glucuronidase inhibition assay (p-nitrophenyl-β-D-glucuronide, absorbance at 405 nm)
Format: biochemical
EXPERIMENTAL_CONTEXT: bovine liver enzyme; substrate p-nitrophenyl-β-D-glucuronide; 37 °C, 30 min; triplicate; ± SEM; NA = Not active
READOUT_NAME: IC50 (µM)

These solved cases illustrate the format of a correct answer.
Cc1cc(Cl)ccc1OCC(=O)NN=Cc1ccsc1 [Compound 12]; 30.7
COc1ccccc1C=CC=NNC(=O)COc1ccc(Cl)cc1C [Compound 1]; 9.2
Cc1cc(Cl)ccc1OCC(=O)NN=Cc1ccc(Cl)cc1 [Compound 7]; 14.7
Cc1cc(Cl)ccc1OCC(=O)NN=Cc1ccccc1[N+](=O)[O-] [Compound 5]; 9.47
Cc1cc(Cl)ccc1OCC(=O)NN=Cc1cccc2ccccc12 [Compound 21]; 13.7

(1) Cc1cc(Cl)ccc1OCC(=O)NN=Cc1ccc2ccccc2c1 [Compound 22]
(2) Cc1cc(Cl)ccc1OCC(=O)NN=Cc1cccc(O)c1O [Compound 15]
Prompt line: # return whichever of 1 and 2 has the smaller IC50 I would appreciate it if you answered with the label of your choice.
Response line: 2
(2: 12 µM, 1: 22 µM)
